The origin of these recorded values is ChEMBL document CHEMBL4261580.

Tested on: HepG2
Experiment: Antiproliferative activity against human HepG2 cells after 72 hrs by MTT assay
Assay type: functional, cell-based
Conditions: HepG2, 72 h
pIC50: −log10 of the molar value.
Respond with condition met for pIC50 values of 5 and above, condition not met for values below.

Observe how each entry below is paired with its result.
# SMILES NOTATION, CATEGORY
measured = [
    ("CC(=O)N[C@H]1[C@H](O[C@H]2CC[C@]3(C)[C@H]4CC=C5[C@@H]6CC(C)(C)CC[C@]6(C(=O)OCc6cn(-c7ccccc7F)nn6)CC[C@@]5(C)[C@]4(C)CC[C@H]3C2(C)C)O[C@H](CO[C@@H]2OC[C@H](O)[C@H](O)[C@@H]2O)[C@@H](O)[C@@H]1O", "condition not met"),
    ("CC(=O)N[C@H]1[C@H](O[C@H]2CC[C@]3(C)[C@H]4CC=C5[C@@H]6CC(C)(C)CC[C@]6(C(=O)OCc6cn(-c7cccc([N+](=O)[O-])c7)nn6)CC[C@@]5(C)[C@]4(C)CC[C@H]3C2(C)C)O[C@H](CO[C@@H]2OC[C@H](O)[C@H](O)[C@@H]2O)[C@@H](O)[C@@H]1O", "condition not met"),
    ("CC(=O)N[C@H]1[C@H](O[C@H]2CC[C@]3(C)[C@H]4CC=C5[C@@H]6CC(C)(C)CC[C@]6(C(=O)OCc6cn(-c7cccc(I)c7)nn6)CC[C@@]5(C)[C@]4(C)CC[C@H]3C2(C)C)O[C@H](CO[C@@H]2OC[C@H](O)[C@H](O)[C@@H]2O)[C@@H](O)[C@@H]1O", "condition met"),
]

Request: hey, is pIC50 for this one >= 5? `CC(=O)N[C@H]1[C@H](O[C@H]2CC[C@]3(C)[C@H]4CC=C5[C@@H]6CC(C)(C)CC[C@]6(C(=O)OCc6cn(-c7cccc(C(C)=O)c7)nn6)CC[C@@]5(C)[C@]4(C)CC[C@H]3C2(C)C)O[C@H](CO[C@@H]2OC[C@H](O)[C@H](O)[C@@H]2O)[C@@H](O)[C@@H]1O`
Response: condition met
